# Assay Target: T1, recombinant human PVRIG-human IgG1 Fc fusion protein (human)
# T1 construct: no linker is told; also called human PVRIG-Fc fusion protein
# T1 sequence (chain, as listed by the source limits assumed): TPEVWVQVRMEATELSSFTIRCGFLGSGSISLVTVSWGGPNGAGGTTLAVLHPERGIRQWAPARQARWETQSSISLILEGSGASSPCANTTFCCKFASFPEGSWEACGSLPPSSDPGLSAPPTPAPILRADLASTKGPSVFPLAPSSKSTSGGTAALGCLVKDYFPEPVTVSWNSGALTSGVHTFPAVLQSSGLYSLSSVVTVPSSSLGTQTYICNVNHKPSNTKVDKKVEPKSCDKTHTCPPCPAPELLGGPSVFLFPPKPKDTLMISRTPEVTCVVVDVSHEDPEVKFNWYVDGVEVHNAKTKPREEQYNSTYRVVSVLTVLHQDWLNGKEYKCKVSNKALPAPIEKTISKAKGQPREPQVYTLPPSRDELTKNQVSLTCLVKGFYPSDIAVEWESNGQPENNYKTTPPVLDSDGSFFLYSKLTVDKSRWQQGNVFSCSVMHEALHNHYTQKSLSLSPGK
# Assay Notes: SPR (Biacore), human PVRIG-human IgG1 Fc on chip, antibody in flow, 1:1 model
Observation Type: koff (s⁻¹)
Unit s⁻¹ implied. Number only.

# return recorded koff for input Antibody 4-hu2 (antibody, human IgG4 S228P, kappa, V domains shown, Humanized Antibody 4; heavy chain IgG4 with S228P already in the entry) VH: EVQLVQSGAEVKKPGSSVKVSCKASGGTFSSFSIEWVRQAPGQGLEWMGEILPGSNSTNYNEKFKGRVTITADESTSTAYMELSSLRSEDTAVYYCSSYWFAYWGQGTLVTVSS VL: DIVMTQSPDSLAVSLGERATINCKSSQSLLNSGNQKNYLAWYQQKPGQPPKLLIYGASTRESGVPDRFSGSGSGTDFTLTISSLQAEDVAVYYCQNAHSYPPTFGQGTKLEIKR 6.38e-05

# return recorded koff for input Antibody 4-hu5 (antibody, human IgG4 S228P, kappa, V domains shown, Humanized Antibody 4; heavy chain IgG4 with S228P already in the entry) VH: EVQLVQSGAEVKKPGSSVKVSCKASGGTFSSFSIEWVRQAPGQGLEWIGEILPGSNSTNYNEKFKGRVTFTADTSTNTAYMELSSLRSEDTAVYYCSSYWFAYWGQGTLVTVSS VL: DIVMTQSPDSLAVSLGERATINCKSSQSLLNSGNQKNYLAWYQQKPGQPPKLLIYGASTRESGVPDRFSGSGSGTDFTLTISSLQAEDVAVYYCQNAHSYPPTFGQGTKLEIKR 3.54e-06
